B1: glmS ribozyme (parent)
chain: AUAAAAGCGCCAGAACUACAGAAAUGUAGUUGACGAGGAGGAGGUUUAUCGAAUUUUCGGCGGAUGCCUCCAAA

# Variants of: B1
# Measurement Notes: self-cleavage kobs at 640 uM GlcN6P; higher = faster cleavage; RNA array
# Experimental Setup: with glucosamine-6-phosphate
Variants at the floor of the assay were thinned out.
Is self-cleavage kobs at 640 uM GlcN6P at least 0.0002 s⁻¹? Then fulfilled. If not, not fulfilled.

[
  {
    "Variant Name": "A53G U54A",
    "Assigned Class": "fulfilled"
  },
  {
    "Variant Name": "U56C C61U C71G",
    "Assigned Class": "not fulfilled"
  },
  {
    "Variant Name": "U55G A64C",
    "Assigned Class": "not fulfilled"
  },
  {
    "Variant Name": "A12U U57C G59C",
    "Assigned Class": "not fulfilled"
  },
  {
    "Variant Name": "U31G G40A",
    "Assigned Class": "fulfilled"
  },
  {
    "Variant Name": "A48U A64C C67U",
    "Assigned Class": "not fulfilled"
  },
  {
    "Variant Name": "U56G C58A",
    "Assigned Class": "not fulfilled"
  },
  {
    "Variant Name": "G29U C34U U55A",
    "Assigned Class": "not fulfilled"
  },
  {
    "Variant Name": "A48U G63U",
    "Assigned Class": "not fulfilled"
  },
  {
    "Variant Name": "A6G G29U G62C",
    "Assigned Class": "not fulfilled"
  },
  {
    "Variant Name": "U30G G41U",
    "Assigned Class": "not fulfilled"
  }
]
